Assay: Displacement of Fl-Sal-AMS from Mycobacterium tuberculosis MbtA expressed in Escherichia coli after 30 mins by fluorescence polarization assay
attributeMeasured: Kd (µM)
I only need the number, in µM, no unit after it.

// worked examples, Kd included
molecularString | Kd / µM
O=C(O)c1cc(-c2cccc(-c3ccccc3)c2)nc2c1cnn2Cc1ccncc1 | 3.6
Cc1cccc(-c2cc(C(=O)O)c3cnn(Cc4ccncc4)c3n2)c1 | 7.4

Value of Kd reported for the compound Cc1ccc(-c2cc(C(=O)O)c3cnn(Cc4ccncc4)c3n2)cc1 is 1.44

Consider Cc1ccc(-c2cc(C(=O)O)c3cnn(Cc4ccncc4)c3n2)s1 . Its measured Kd is 2.6

Just so you know, measured Kd for O=C(O)c1cc(-c2ccccc2O)nc2c1cnn2Cc1ccncc1 came out at 6.5

----------
Here the recorded pKd is given for each entry.
Experiment: Displacement of Fl-Sal-AMS from Mycobacterium tuberculosis MbtA expressed in Escherichia coli after 30 mins by fluorescence polarization assay
In plain terms, pKd is the concentration in mol/L turned into minus its base-10 logarithm.

The examples below pair each entry with its known result.
molecularString | valueMeasured
O=C(O)c1cc(-c2ccc(-c3ccccc3)cc2)nc2c1cnn2Cc1ccncc1 | 5.46
OCc1cc(-c2ccccc2)nc2c1cnn2Cc1ccncc1 | 4.77
O=C(O)c1cc(-c2ccco2)nc2c1cnn2Cc1ccncc1 | 4.71
O=C(O)c1cc(-c2cccnc2)nc2c1cnn2Cc1ccncc1 | 4.77

Next up:
GET /value?item= COc1ccc(-c2cc(C(=O)O)c3cnn(Cc4ccncc4)c3n2)cc1 &field=pKd returns 5.49

----------
Experiment: Displacement of Fl-Sal-AMS from Mycobacterium tuberculosis MbtA expressed in Escherichia coli after 30 mins by fluorescence polarization assay
pKd: −log10 of the molar value.
Item-by-item account of pKd

Consider the reported pKd for these compounds:
molecularString | pKd
CNC(=O)c1cc(-c2ccccc2)nc2c1cnn2Cc1ccncc1 | < 4.30
CCCCCCCCOc1ccc(-c2cc(C(=O)O)c3cnn(Cc4ccncc4)c3n2)cc1 | < 4.30
O=C(O)c1cc(-c2ccccc2-c2ccccc2Cl)nc2c1cnn2Cc1ccncc1 | < 4.30
O=C(NC1CC1)c1cc(-c2ccccc2)nc2c1cnn2Cc1ccncc1 | < 4.00
O=C(O)c1cc(-c2ccccc2Cl)nc2c1cnn2Cc1ccncc1 | < 4.00
CCCCCCCCCCCCOc1ccc(-c2cc(C(=O)O)c3cnn(Cc4ccncc4)c3n2)cc1 | < 4.30

Please examine the following record next.
Lookup result for CCCNC(=O)c1cc(-c2ccccc2)nc2c1cnn2Cc1ccncc1 ; measured pKd: < 4.30
